Data origin, for the record: ChEMBL document CHEMBL4616702

# protocol-text: AUC (0 to 24 hrs) in mouse at 4 mg/kg, po
# Format: ADME, organism-based
# Set-up: dose 4 mg/kg, time < 24 hr, route oral
# measurement-setup: in vivo
property-label: AUC(0-t) at 24 h

Query: Which AUC(0-t) at 24 h value belongs to C[C@H]1C[C@H](C(=O)O)CC[C@H]1C(=O)N1CC[C@@]2(S(=O)(=O)c3ccc(F)cc3)c3ccc(C(F)(C(F)(F)F)C(F)(F)F)cc3CC[C@@H]12 [BMS-986251] ?
Reply: 37 µM·h

---

# protocol-text: Volume of distribution in steady state in dog at 1 mg/kg, iv
# Format: ADME, organism-based, Canis lupus familiaris
# measurement-setup: in vivo, read-out: Vdss
property-label: Vd (L/kg)
# value in L/kg; strip the unit string

Query: May I ask what Vd has been recorded for C[C@H]1C[C@H](C(=O)O)CC[C@H]1C(=O)N1CC[C@@]2(S(=O)(=O)c3ccc(F)cc3)c3ccc(C(F)(C(F)(F)F)C(F)(F)F)cc3CC[C@@H]12 ?
Reply: 0.5

---

# protocol-text: AUC (0 to 24 hrs) in cynomolgus monkey at 1 mg/kg, po
# Type: ADME, organism-based, Macaca fascicularis
# Set-up: dose 1 mg/kg, time < 24 hr, route oral
# measurement-setup: in vivo
property-label: AUC(0-t) at 24 h (µM·h)
Could you give me the number in µM·h? Just the number is fine.

Query: Given the entry C[C@H]1C[C@H](C(=O)O)CC[C@H]1C(=O)N1CC[C@@]2(S(=O)(=O)c3ccc(F)cc3)c3ccc(C(F)(C(F)(F)F)C(F)(F)F)cc3CC[C@@H]12 [BMS-986251] , report its measured AUC(0-t) at 24 h.
Reply: 35

---

# protocol-text: Volume of distribution in steady state in cynomolgus monkey at 1 mg/kg, iv
# Format: ADME, organism-based, Macaca fascicularis
# measurement-setup: in vivo, read-out: Vdss
property-label: Vd (L/kg)
# unit: L/kg | format: bare number

Query: # Vd lookup, item C[C@H]1C[C@H](C(=O)O)CC[C@H]1C(=O)N1CC[C@@]2(S(=O)(=O)c3ccc(F)cc3)c3ccc(C(F)(C(F)(F)F)C(F)(F)F)cc3CC[C@@H]12
Reply: 2

---

# experimental-system: Oxysterols receptor LXR-alpha (Homo sapiens)
# Sequence (Q13133 whole entry): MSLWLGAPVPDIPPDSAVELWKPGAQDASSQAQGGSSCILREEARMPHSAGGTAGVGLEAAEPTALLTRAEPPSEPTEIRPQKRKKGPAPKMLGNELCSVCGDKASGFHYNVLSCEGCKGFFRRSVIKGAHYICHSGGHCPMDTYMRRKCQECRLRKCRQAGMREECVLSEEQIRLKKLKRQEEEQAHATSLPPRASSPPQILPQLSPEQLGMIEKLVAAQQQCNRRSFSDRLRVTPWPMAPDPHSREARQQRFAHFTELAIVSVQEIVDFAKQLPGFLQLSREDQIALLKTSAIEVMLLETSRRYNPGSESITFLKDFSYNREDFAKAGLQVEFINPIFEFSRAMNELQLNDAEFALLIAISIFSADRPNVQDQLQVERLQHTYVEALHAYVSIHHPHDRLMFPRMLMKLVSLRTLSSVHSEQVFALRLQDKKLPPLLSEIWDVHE
# protocol-text: Inverse agonist activity at LXRalpha (unknown origin)
property-label: EC50

Query: Short answer please: EC50, Oxysterols receptor LXR-alpha (Homo sapiens), entry C[C@H]1C[C@H](C(=O)O)CC[C@H]1C(=O)N1CC[C@@]2(S(=O)(=O)c3ccc(F)cc3)c3ccc(C(F)(C(F)(F)F)C(F)(F)F)cc3CC[C@@H]12 [BMS-986251]
Reply: > 7.5 µM

---

# protocol-text: Drug concentration in Balb/c mouse at 10 mg/kg, po measured upto 24 hrs
# Type: ADME, organism-based
# measurement-setup: in vivo, read-out: Drug uptake
Quick reference: concentration at 24 h of the listed items.
Record the value in nM, omitting the unit from your answer.

Known concentration at 24 h results, listed for orientation:
- compound: "C[C@@H]1C[C@H](C(=O)N2CC[C@@]3(S(=O)(=O)c4ccc(F)cc4)c4ccc(C(F)(C(F)(F)F)C(F)(F)F)cc4CC[C@@H]23)CC[C@H]1C(=O)O"
  unit-annotation: "nM"
  concentration at 24 h: 2200
- compound: "C[C@H]1C[C@H](C(=O)O)CC[C@H]1C(=O)N1CC[C@@]2(S(=O)(=O)c3ccc(F)cc3)c3ccc(C(F)(C(F)(F)F)C(F)(F)F)cc3CC[C@@H]12 [BMS-986251]"
  unit-annotation: "nM"
  concentration at 24 h: 520

// next entry
Query: What value of measured concentration at 24 h is listed for C[C@H]1C[C@H](C(=O)N2CC[C@@]3(S(=O)(=O)c4cccc(F)c4)c4ccc(C(F)(C(F)(F)F)C(F)(F)F)cc4CC[C@@H]23)CC[C@H]1C(=O)O ?
Reply: 780

---

# protocol-text: Fraction unbound in human plasma
# Format: ADME, cell-free
property-label: fraction unbound
Lab note: record the figure alone, no unit after it.

Query: Report fraction unbound for C[C@H]1C[C@H](C(=O)O)CC[C@H]1C(=O)N1CC[C@@]2(S(=O)(=O)c3ccc(F)cc3)c3ccc(C(F)(C(F)(F)F)C(F)(F)F)cc3CC[C@@H]12 please.
Reply: 0.012

---

# experimental-system: Cytochrome P450 2C19 (Homo sapiens)
# Sequence (P33261 whole entry): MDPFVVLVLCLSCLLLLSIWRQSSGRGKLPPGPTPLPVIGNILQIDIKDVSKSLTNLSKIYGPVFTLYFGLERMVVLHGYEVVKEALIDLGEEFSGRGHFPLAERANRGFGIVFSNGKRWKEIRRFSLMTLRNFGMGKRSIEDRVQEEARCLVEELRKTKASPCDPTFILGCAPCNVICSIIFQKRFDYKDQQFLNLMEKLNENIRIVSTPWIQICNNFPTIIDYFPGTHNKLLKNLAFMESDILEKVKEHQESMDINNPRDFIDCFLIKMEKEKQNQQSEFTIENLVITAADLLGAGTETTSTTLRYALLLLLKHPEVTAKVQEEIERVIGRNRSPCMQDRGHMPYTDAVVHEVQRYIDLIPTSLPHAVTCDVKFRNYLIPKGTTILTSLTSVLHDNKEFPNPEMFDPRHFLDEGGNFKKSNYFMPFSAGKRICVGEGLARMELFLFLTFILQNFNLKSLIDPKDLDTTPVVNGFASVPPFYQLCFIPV
# protocol-text: Inhibition of recombinant CYP2C19 (unknown origin)
# Type: ADME
pIC50: −log10 of the molar value.
property-label: pIC50

Query: Any idea what pIC50 was measured for C[C@H]1C[C@H](C(=O)O)CC[C@H]1C(=O)N1CC[C@@]2(S(=O)(=O)c3ccc(F)cc3)c3ccc(C(F)(C(F)(F)F)C(F)(F)F)cc3CC[C@@H]12 ?
Reply: < 4.70

---

# protocol-text: Half life in mouse at 2 mg/kg, iv
# Format: ADME, organism-based
# measurement-setup: in vivo
property-label: half-life (h)
Provide the reading as a plain figure in h.

Query: Please report the recorded half-life for C[C@H]1C[C@H](C(=O)O)CC[C@H]1C(=O)N1CC[C@@]2(S(=O)(=O)c3ccc(F)cc3)c3ccc(C(F)(C(F)(F)F)C(F)(F)F)cc3CC[C@@H]12 [BMS-986251] .
Reply: 7.7

---

# protocol-text: Half life in cynomolgus monkey at 1 mg/kg, iv
# Type: ADME, organism-based, Macaca fascicularis
# measurement-setup: in vivo
property-label: half-life (h)
Give the quantity in h, number only.

Query: Quick one: half-life of C[C@H]1C[C@H](C(=O)O)CC[C@H]1C(=O)N1CC[C@@]2(S(=O)(=O)c3ccc(F)cc3)c3ccc(C(F)(C(F)(F)F)C(F)(F)F)cc3CC[C@@H]12 ?
Reply: 33

---

# protocol-text: Half life in rat liver microsomes in presence of NADPH by LC/MS/MS metho
# Assay type: ADME, Microsome
# measurement-setup: liver microsomes
# key: entry, value: half-life

See these solved cases before continuing.
- chemical-structure: "O=C(O)[C@H]1CC[C@H](C(=O)N2CC[C@@]3(S(=O)(=O)c4ccc(F)cc4)c4ccc(C(F)(C(F)(F)F)C(F)(F)F)cc4CC[C@@H]23)CC1"
  observed-value: "> 2 h"
- chemical-structure: "C[C@@H]1C[C@H](C(=O)O)CC[C@H]1C(=O)N1CC[C@@]2(S(=O)(=O)c3ccc(F)cc3)c3ccc(C(F)(C(F)(F)F)C(F)(F)F)cc3CC[C@@H]12"
  observed-value: "> 2 h"
- chemical-structure: "C[C@@H]1C[C@H](C(=O)N2CC[C@@]3(S(=O)(=O)c4ccc(F)cc4)c4ccc(C(F)(C(F)(F)F)C(F)(F)F)cc4CC[C@@H]23)CC[C@H]1C(=O)O"
  observed-value: "1.22 h"
- chemical-structure: "O=C(N1CC[C@@]2(S(=O)(=O)c3ccc(F)cc3)c3ccc(C(F)(C(F)(F)F)C(F)(F)F)cc3CC[C@@H]12)C1(O)CCS(=O)(=O)CC1"
  observed-value: "> 2 h"
- chemical-structure: "C[C@H]1C[C@H](C(=O)O)CC[C@H]1C(=O)N1CC[C@@]2(S(=O)(=O)c3cccc(F)c3)c3ccc(C(F)(C(F)(F)F)C(F)(F)F)cc3CC[C@@H]12"
  observed-value: "1.78 h"
- chemical-structure: "C[C@H]1C[C@H](C(=O)O)CC[C@H]1C(=O)N1CC[C@@]2(S(=O)(=O)c3ccc(F)cc3)c3ccc(C(F)(C(F)(F)F)C(F)(F)F)cc3CC[C@@H]12"
  observed-value: "> 2 h"

Now, please, on to the next molecule.
Query: Param item = C[C@H]1C[C@H](C(=O)N2CC[C@@]3(S(=O)(=O)c4cccc(F)c4)c4ccc(C(F)(C(F)(F)F)C(F)(F)F)cc4CC[C@@H]23)CC[C@H]1C(=O)O ; retrieve measured half-life.
Reply: > 2 h

---

# protocol-text: Oral bioavailability in rat at 4 mg/kg
# Assay type: ADME, organism-based
# measurement-setup: in vivo
property-label: bioavailability (%)
Form entry: value (%) — number only.

Query: Looking for the measured bioavailability of C[C@H]1C[C@H](C(=O)O)CC[C@H]1C(=O)N1CC[C@@]2(S(=O)(=O)c3ccc(F)cc3)c3ccc(C(F)(C(F)(F)F)C(F)(F)F)cc3CC[C@@H]12 [BMS-986251] , can you help?
Reply: 94

---

# protocol-text: Oral bioavailability in mouse at 4 mg/kg
# Type: ADME, organism-based
# measurement-setup: in vivo
property-label: bioavailability
Remember to quote the unit after the number.

Query: // query bioavailability value for entry C[C@H]1C[C@H](C(=O)O)CC[C@H]1C(=O)N1CC[C@@]2(S(=O)(=O)c3ccc(F)cc3)c3ccc(C(F)(C(F)(F)F)C(F)(F)F)cc3CC[C@@H]12
Reply: 100%
